Taken from patent US20110207697A1.

test: Water solubility of xanthohumol (HPLC of supernatant); format: physicochemical; details: thermodynamic from solid, 1 mg xanthohumol per ml water, sonicated 5 minutes, centrifuged 3,000 rpm 2 minutes, read-out: Water-solubility of XN (3,000 rpm)
measurement-name: solubility at 5 min (µg/mL)
Please state the figure in µg/mL; there is no need to write the unit.

-- ask Field request: solubility at 5 min | item: COc1cc(O)c(CC=C(C)C)c(O)c1C(=O)/C=C/c1ccc(O)cc1 [Xanthohumol (7)]
-- reply 4

* * *

assay: Water solubility of xanthohumol (HPLC of supernatant); type: physicochemical; settings: thermodynamic from solid, 1 mg xanthohumol per ml water, sonicated 5 minutes, centrifuged 12,000 rpm 3 minutes, read-out: Water-solubility of XN (12,000 rpm)
measurement-name: solubility at 5 min (µg/mL)
Please reply with the bare figure in µg/mL and do not write the unit itself.

-- ask Which measured solubility at 5 min value corresponds to COc1cc(O)c(CC=C(C)C)c(O)c1C(=O)/C=C/c1ccc(O)cc1 ?
-- reply 2
